Cited source for all entries: PubChem BioAssay (NCI)

System: NCI-H522 lung
protocol.details: NCI-60 one-dose screen, 48 h (100 = growth as untreated, 0 = no growth, -100 = all killed)
setup.conditions: 10 µM unless noted
The panel holds about 83,000 compounds, 20% with a hit somewhere; the sample as a whole holds those more often.
Assignment: determine reported growth for the given compounds.
Please respond with the number in % and leave the unit unwritten.

According to the records, this compound CC(C)=CC(=O)N[C@H]1CC[C@]2(C)C3CC[C@]4(C)C(C(C)N(C)C)=CCC4C3CCC2[C@H]1O (stereo partly drawn) displays growth of 89.4

Lab book: growth of `c1ccc(-c2ccc3c(c2)C2(CCNCC2)CN3)cc1` noted as 88.3

get_value(item= CCOC(=O)c1cnn(CC(C)O)c1NC(=O)NCc1ccccc1C(F)(F)F (stereo not drawn) , readout=growth) returns 60.8

---

Test system: MOLT-4 leukemia
protocol.details: NCI-60 one-dose screen, 48 h
setup.conditions: 10 µM unless noted
This is part of a sample that, as a whole, favours compounds with a hit. Of some 83,000 tested, about 20% had one in any assay. Activity calls are given as the source filed them. Rule for the calls: active = growth percent below 10; inactive = the rest.
Just give me one of these, please: Yes for active, No for inactive

Fill in: this test's call for `O=C1Nc2ccc(Cl)cc2/C1=C/c1ccc[nH]1` is ___
No

State the result this test recorded for CCN1C(=O)N(CC)C2C1NN=c1s/c(=C\c3ccc(OC)cc3)c(=O)n12 (stereo not given) .
No

Dear all, I need the recorded test outcome for `CNC(=O)c1cc(Oc2ccc3c(c2)sc2nc(-c4ccc(Cl)c(C(F)(F)F)c4)cn23)ccn1` , thank you.
No

For CC12OC(CC(O)C1O)n1c3ccccc3c3c4c(c5c6ccccc6n2c5c31)C(=O)N(CCN1CCCC1)C4=O (stereo not given) , what call appears in the results of this test?
Yes

What did this assay record as the result for `CN(C)Cc1cc(C(C)(C)C)cc(Br)c1O` ?
No

Record lookup: outcome of this test for `C/C(=C(\c1ccc(OCCN2CCCCCC2)cc1)c1ccc(OC(=O)c2ccccc2)cc1)c1ccc(Cl)cc1` ?
Yes

Outcome? `Cc1ccc(S(=O)(=O)OC[C@]23CCC(C)(C)C[C@H]2C2=CC[C@@H]4[C@@]5(C)CCCNC(C)(C)[C@@H]5CC[C@@]4(C)[C@]2(C)CC3)cc1`
No

Fill in: this test's call for `Clc1ccc(Nc2nnc(CNc3ccccc3)c3ccccc23)cc1` is ___
Yes

Recorded call for `CC(C)(C)c1ccc(C(=O)N/N=C/c2ccc(O)cc2O)cc1` ?
No

In this assay, the call recorded for `CC(C)CCC[C@@H](C)[C@H]1CC[C@H]2[C@@H]3CC=C4c5sc(Nc6cc(C(F)(F)F)cc(C(F)(F)F)c6)nc5CC[C@]4(C)[C@H]3CC[C@]12C` was what?
No

Please indicate how the test categorized `Oc1c(I)cc(I)cc1CN(Cc1ccccn1)Cc1ccccn1` .
Yes

Hi, sorry to bother you, what did the test record for `CN1CCN(Cc2ccc(NC(=O)c3cncc(C#Cc4cnc(N)cc4C#N)c3)cc2C(F)(F)F)CC1` ?
Yes

Recorded test call requested for COc1ccc(C2CC(n3ccnc3)c3cc(OC)c(OC)c(OC)c32)cc1O (stereo not given)
No

Please share the test call associated with `N#Cc1nn(-c2cc(=O)[nH]c3ccc(Br)cc23)c(N)c1C#N` .
Yes

Outcome logged for `COc1ccc(-c2cc(-c3cccnc3)nc3sc4c(N)c(C(C)=O)c(-c5ccccc5)nc4c23)cc1OC` in this assay:
No

Answer briefly: the call reported for `COc1cc(O)c2c(=O)c3c(CC=C(C)C)cc(OC)c(O)c3oc2c1` in this assay.
No

Could you please tell me the result logged for `CCOC(=O)c1c(NC(=O)c2ccccc2)sc2c3c(ccc12)OCN(C)C3` in this assay?
Yes

Per the records of this test, what outcome belongs to `CCCCn1c(NC(C)=O)c(S(=O)(=O)c2ccccc2)c2nc3ccccc3nc21` ?
No

Identify the outcome logged in this assay for the compound shown: `COc1ccc(-c2nc3ccc(C)cc3c3c2c(=O)n(C)c(=O)n3C)cc1OC`
No

Tell me the assay call for `COc1c2c(cc3c1C(=O)N[C@@H]1[C@@H](O)[C@@H](O)[C@H](O)C[C@@H]31)OCCO2` please.
No

I would be grateful if you could indicate the recorded call for `O=C1c2cccnc2C(=O)c2c1c(C(=O)OCCc1ccccn1)c1ccccn21` .
Yes

What did this assay record as the result for C#Cc1cccc(NC(=O)C2CCCCN2C(=O)CCl)c1 (stereo not given) ?
Yes

What did the test return for `O=C(Nc1ncc(Cc2ccccc2)s1)c1sc2ccccc2c1Cl` ?
No

What did the test return for `C#CCOc1ccc2nc(CCl)c(Cl)c(Nc3cccc(C(F)(F)F)c3)c2c1` ?
No

Recorded call for `COc1ccc(-c2cn(Cc3cc4ccccc4s3)nn2)cc1OCCN1CCCCC1` ?
No

What did the test return for CC1(C)CC(=O)C2=C(C1)C(c1ccc(Cl)cc1)n1ncc(C#N)c1N2 (stereo not given) ?
No

Please let me know the test result on file for `CCN(CC)CCOc1ccc2c(-c3ccccc3)c(-c3ccc(OC)cc3)c(=O)oc2c1` .
No

Kindly provide the recorded test outcome for the following compound: `CS(=O)(=O)Nc1cc(-c2ccc3ncnc(Nc4ccc(F)c(Cl)c4)c3c2)ccc1Cl`
No

Would you mind telling me which call this test gave `c1ccc(Nc2nc3c(s2)CCc2c[nH]cc2-3)nc1` ?
No

Tell me the assay call for `COC12C=C/C(=C(/C(=O)OCCSc3ccnn3C)C(=O)CCCCCCCCC3(OC)C=C/C(=C(/C(=O)OCCSc4ccnn4C)C(=O)CCCCCCCC1)O3)O2` please.
Yes

Which outcome was assigned to `Cc1ccc(S(=O)(=O)N2CCCN(c3nc(-c4ccccc4)nc4nc(-c5ccccc5)oc34)CC2)cc1` in this test?
No

Hi team, can someone confirm the assay call for `CSc1ccc2c3c(n(C[C@H](O)CO)c(=O)c2c1)-c1ccccc1C3=O` ?
Yes

Could you please tell me the result logged for `C[C@H](c1nc2ccc(C#N)cc2[nH]1)[C@H]1CC[C@H]2[C@@H]3CCC4=CC(=O)CC[C@]4(C)[C@H]3CC[C@]12C` in this assay?
No

I'd appreciate the recorded outcome for `Cc1[nH]c(C(=O)Nc2ccccc2OC2CCN(CCN3CCOCC3)CC2)c(Cl)c1Cl` from this test.
No

Write down the call the test reported for this compound. Item: `COc1ccc(C(=O)/C=C/c2ccccc2)cc1S(N)(=O)=O`
No
